# System: MIA PaCa-2
# PROTOCOL_SUMMARY: Growth inhibition of MiaPaCa2 cells after 72 hrs by MTT assay
# Assay type: functional, cell-based
# TEST_SETTINGS: Homo sapiens, MIA PaCa-2, 72 h
pIC50: −log10 of the molar value.
# reported pIC50; entries follow

Worked set:
COc1cc(/C=C(\C)c2ccc(F)cc2)nc(OC)n1 = < 4.00
CC(O)(CF)Cc1cc(O)nc(O)n1 (configuration not stated) = < 3.70
COc1nc(CC(C)(O)c2ccc(F)cc2)c(C)c(OC)n1 (configuration not stated) = 4.19
COc1nc(CC(C)(O)C(F)(F)F)c(-c2ccccc2)c(OC)n1 (configuration not stated) = 4.70

Read off the recorded pIC50 for COc1cc(CC(C)(O)c2ccc(F)cc2)nc(OC)n1 (configuration not stated)
< 4.00

Read off the recorded pIC50 for COc1cc(/C=C(\O)C(F)(F)C(F)(F)F)nc(OC)n1
≤ 4.00

Read off the recorded pIC50 for CC(=O)OC(C)(Cc1cc(O)nc(O)n1)Cc1ccccc1F (configuration not stated)
< 3.70

Read off the recorded pIC50 for COc1cc(CC(C)(O)C(F)(F)F)nc(OC)n1 (configuration not stated)
< 3.70

Read off the recorded pIC50 for COc1cc(/C=C(/O)C(F)(F)F)nc(OC)n1
< 3.70
